- molecule: "COc1ccc(-c2cc(NC(=O)OCCCCCc3ccccc3)c(=O)n(CC=Cc3ccc(Cl)cc3)n2)cc1 [Example 118]"
  melting point: "113.5 to 114.2 °C"
- molecule: "CNC(=O)c1cc(-c2ccc(OC)c(OC)c2)nn(CC(C)C)c1=O [Example 53]"
  melting point: "111.4 to 112.6 °C"
- molecule: "CCCNC(=O)c1cc(-c2ccc(OC)cc2)nn(CC2CCCC2)c1=O [Example 74]"
  melting point: "109.9 to 110.2 °C"
- molecule: "CCOC(=O)c1cc(-c2ccc(OC)cc2)nn(CC2CC2)c1=O [Example 16]"
  melting point: "80.1 to 80.9 °C"
- molecule: "COc1ccc(-c2cc(NC(=O)OC(C)C)c(=O)n(CC=Cc3ccc(Cl)cc3)n2)cc1 [Example 88]"
  melting point: "123.9 to 127.4 °C"
- molecule: "COc1ccc(-c2cc(C(=O)NCc3ccccn3)c(=O)n(CC3CCCC3)n2)cc1 [Example 76]"
  melting point: "126.6 to 127.5 °C"
- molecule: "CCOC(=O)Nc1cc(-c2ccc(OC)cc2)nn(Cc2ccccc2)c1=O [Example 97]"
  melting point: "152.1 to 162.5 °C"
- molecule: "CNC(=O)c1cc(-c2ccc(OC)cc2)nn(CC=Cc2ccc(Cl)cc2)c1=O [Example 85]"
  melting point: "184.2 to 185.4 °C"
- molecule: "CCOC(=O)Nc1cc(-c2ccc(OC)cc2)nn(CC2CC2)c1=O [Example 95]"
  melting point: "119.1 to 119.6 °C"
- molecule: "COc1ccc(-c2cc(NC(=O)NC(C)C)c(=O)n(CC3CC3)n2)cc1 [Example 125]"
  melting point: "195.8 to 197 °C"
- molecule: "COc1ccc(-c2cc(NC=O)c(=O)n(CC=Cc3ccc(Cl)cc3)n2)cc1 [Example 112]"
  melting point: "213 to 213.8 °C"
- molecule: "CNC(=O)c1cc(-c2ccc(OC)cc2)nn(C(C)C)c1=O [Example 52]"
  melting point: "154 to 154.3 °C"
- molecule: "COC(=O)c1cc(-c2ccc(OC)c(F)c2)nn(CC(C)C)c1=O [Example 12]"
  melting point: "153.3 to 154.9 °C"
- molecule: "CCOC(=O)c1cc(-c2ccc(OC)cc2)nn(Cc2ccc(Cl)cc2Cl)c1=O [Example 24]"
  melting point: "135.7 to 136.3 °C"
- molecule: "COc1ccc(-c2cc(N)c(=O)n(CC=Cc3ccc(Cl)cc3)n2)cc1 [Example 111]"
  melting point: "142.7 to 143.2 °C"
- molecule: "CNC(=O)C1CC(c2ccc(OC)cc2)=NN(CC(C)C)C1=O (stereo not drawn) [Example 128]"
  melting point: "124.2 to 125 °C"
- molecule: "COc1ccc(-c2cc(N)c(=O)n(CC3CC3)n2)cc1 [Example 124]"
  melting point: "110.8 to 111.3 °C"
- molecule: "CCOC(=O)c1cc(-c2ccc(OC)cc2)nn(C(C)C)c1=O [Example 9]"
  melting point: "140.6 to 141.1 °C"

----------
Recorded measurements of melting point, one per entry

- compound: "COc1ccc(-c2cc(NS(C)(=O)=O)c(=O)n(Cc3ccccc3)n2)cc1"
  melting point: "195 to 195.5 °C"
- compound: "CNC(=O)c1cc(-c2ccc(OC)cc2)nn(CC(C)C)c1=O"
  melting point: "124.9 to 125.2 °C"
- compound: "COc1ccc(-c2cc(C(=O)Nc3ccncc3)c(=O)n(CC3CC3)n2)cc1"
  melting point: "181.3 to 181.5 °C"
- compound: "CCNC(=O)c1cc(-c2ccc(OC)cc2)nn(CC2CC2)c1=O"
  melting point: "136.3 to 136.9 °C"
- compound: "COc1ccc(-c2cc(NC(=O)NC(C)C)c(=O)n(Cc3ccccc3)n2)cc1"
  melting point: "200.2 to 201 °C"
- compound: "COC(=O)c1cc(-c2ccc(OC)c(OC)c2)nn(CC=Cc2ccc(Cl)cc2)c1=O"
  melting point: "117.5 to 118.7 °C"
- compound: "COC(=O)c1cc(-c2ccc(OC)c(OC)c2)nn(CC2CC2)c1=O"
  melting point: "136.5 to 137.3 °C"
- compound: "COC(=O)c1cc(-c2ccc(OC)cc2)nn(Cc2ccc(N)cc2)c1=O"
  melting point: "160 to 161.9 °C"
- compound: "CNC(=O)c1cc(-c2ccc(OC)cc2)nn(CC(=O)NCCO)c1=O"
  melting point: "240.2 to 241.2 °C"
- compound: "CNC(=O)c1cc(-c2ccc(SC)cc2)nn(CC2CC2)c1=O"
  melting point: "116.5 to 118 °C"
